test system: Staphylococcus aureus; experiment: In vitro minimal inhibitory concentration (MIC) in brain-heart infusion broth in the presence of hog liver esterase(1:1.5) in Staphylococcus aureus 400; format: functional
measure name: MIC (µg/mL)
Give the value, in units of µg/mL, as a plain number.

Record excerpt, results attached:
- compound: "C[C@H]1C(O)[C@@H]2[C@H](NC(=O)COc3ccccc3)C(=O)N2[C@H]1C(=O)OCOC(=O)C(C)(C)C (stereo partly drawn)"
  uom: "µg/mL"
  MIC: 50
- compound: "CC1=C(C(=O)OCOC(=O)C(C)(C)C)N2C(=O)[C@H]([C@@H](C)O)[C@H]2C1O (stereo partly drawn)"
  uom: "µg/mL"
  MIC: 1.56
- compound: "CC1(C)S[C@@H]2[C@H](NC(=O)COc3ccccc3)C(=O)N2[C@H]1C(=O)O"
  uom: "µg/mL"
  MIC: 50

The record that follows has no MIC shown yet.
Entry N[C@@H](C(=O)N[C@@H]1C(=O)N2C(C(=O)O)=C(Cl)CS[C@H]12)c1ccccc1 [CEFACLOR ANHYDROUS] has what MIC?
3.12
